Biological target: IR (Homo sapiens, UniProt P06213)
Sequence (P06213 28-758 limits assumed): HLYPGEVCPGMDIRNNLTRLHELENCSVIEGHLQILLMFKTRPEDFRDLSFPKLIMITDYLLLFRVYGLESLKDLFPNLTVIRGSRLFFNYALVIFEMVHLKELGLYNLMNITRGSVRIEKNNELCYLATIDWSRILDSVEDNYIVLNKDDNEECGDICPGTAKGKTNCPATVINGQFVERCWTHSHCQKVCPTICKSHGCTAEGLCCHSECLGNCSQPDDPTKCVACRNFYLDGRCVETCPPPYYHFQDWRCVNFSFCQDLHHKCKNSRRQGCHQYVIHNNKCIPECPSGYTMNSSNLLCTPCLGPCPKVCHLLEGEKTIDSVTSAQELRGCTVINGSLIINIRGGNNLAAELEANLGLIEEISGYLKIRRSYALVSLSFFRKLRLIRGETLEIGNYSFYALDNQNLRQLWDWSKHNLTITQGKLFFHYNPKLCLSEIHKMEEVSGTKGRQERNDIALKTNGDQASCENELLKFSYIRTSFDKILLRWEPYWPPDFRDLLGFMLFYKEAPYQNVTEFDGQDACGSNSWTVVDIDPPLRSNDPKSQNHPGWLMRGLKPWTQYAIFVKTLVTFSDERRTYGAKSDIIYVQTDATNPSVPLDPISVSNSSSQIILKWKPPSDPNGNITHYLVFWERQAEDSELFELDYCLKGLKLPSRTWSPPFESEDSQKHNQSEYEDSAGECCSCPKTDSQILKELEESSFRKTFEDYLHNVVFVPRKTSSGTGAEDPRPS
Sequence (P06213 763-956 limits assumed): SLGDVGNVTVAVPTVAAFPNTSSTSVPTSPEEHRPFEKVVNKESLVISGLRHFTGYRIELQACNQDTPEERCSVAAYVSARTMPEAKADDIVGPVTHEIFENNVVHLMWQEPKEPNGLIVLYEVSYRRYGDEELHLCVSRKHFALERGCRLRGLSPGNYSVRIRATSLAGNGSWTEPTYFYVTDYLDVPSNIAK
Assay: Phage ELISA, binding of phage clones to IR (ratio over background)
Conditions: ratio of IR divided by ratio of IGF-1R
measured_attribute: Comparisons IR/IGF-1R

Please look at SRVAATKEKRPSDDPFYHKLSELLQGS [Peptide B6Hα-3-F7-IR] and tell me its recorded Comparisons IR/IGF-1R on IR (Homo sapiens, UniProt P06213). 0.3

Report Comparisons IR/IGF-1R under test system IR (Homo sapiens, UniProt P06213) for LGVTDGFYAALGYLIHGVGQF [20E2B-3-D11-IGFR] . 0.1

Answer with Comparisons IR/IGF-1R of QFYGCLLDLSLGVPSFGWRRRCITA [20C-3-A4-IGFR] measured for IR (Homo sapiens, UniProt P06213). 0.1

Under IR (Homo sapiens, UniProt P06213), report Comparisons IR/IGF-1R for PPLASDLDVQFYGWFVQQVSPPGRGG [H2CA-2-B3-IGFR] 0.3

Jot down Comparisons IR/IGF-1R (IR (Homo sapiens, UniProt P06213)) of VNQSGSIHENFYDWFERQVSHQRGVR [H2CA-4-F10-IGFR] . 0.2

State, for IR (Homo sapiens, UniProt P06213), measured Comparisons IR/IGF-1R of the sequence listed here: GFREGSFYDWFQAQVT [E4Dα-2-D11-IR] 0.3

Return reported Comparisons IR/IGF-1R for target or system IR (Homo sapiens, UniProt P06213), item RCGDEEGWQENRRDDPFYHKLSELFGGC [Peptide B6Hα-3-E5-IR] . 0.3

// fetch Comparisons IR/IGF-1R for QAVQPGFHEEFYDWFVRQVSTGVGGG [H2CA-4-H4-IGFR] ; system: IR (Homo sapiens, UniProt P06213) 0.2

Under IR (Homo sapiens, UniProt P06213): report Comparisons IR/IGF-1R of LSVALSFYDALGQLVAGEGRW [20E2A-3-A12-IGFR] . 0.3

State, for IR (Homo sapiens, UniProt P06213), measured Comparisons IR/IGF-1R of the sequence listed here: GLDHSDAVGVHLGFAWPAQARGRWEAGGLEDTWAGYDWL [40F-4-B1-IGFR] 0.1

Under IR (Homo sapiens, UniProt P06213), report Comparisons IR/IGF-1R for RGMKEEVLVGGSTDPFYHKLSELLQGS [B6Hα-3-F11-IR] 0.1

Give Comparisons IR/IGF-1R for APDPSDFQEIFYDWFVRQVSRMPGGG [H2CA-1-A3-IGFR] tested on IR (Homo sapiens, UniProt P06213). 0.2

State the measured Comparisons IR/IGF-1R (IR (Homo sapiens, UniProt P06213)) of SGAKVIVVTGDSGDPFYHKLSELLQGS [B6Hα-2-C10-IR] 0.2

Fill: Comparisons IR/IGF-1R (IR (Homo sapiens, UniProt P06213)) for this sequence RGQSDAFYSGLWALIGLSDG [Peptide R20β-4-A6-IR] 0.1

Give IR (Homo sapiens, UniProt P06213) Comparisons IR/IGF-1R for the following sequence: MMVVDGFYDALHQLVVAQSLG [20E2A-3-D10-IGFR] 0.3

Specify the recorded Comparisons IR/IGF-1R for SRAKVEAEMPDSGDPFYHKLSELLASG [Peptide B6Hα-1-A3-IR] , system: IR (Homo sapiens, UniProt P06213). 0.3

Identify measured Comparisons IR/IGF-1R obtained with IR (Homo sapiens, UniProt P06213) for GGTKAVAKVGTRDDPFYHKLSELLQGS [Peptide B6Hα-4-G8-IR] . 0.3

Look up and report Comparisons IR/IGF-1R, with IR (Homo sapiens, UniProt P06213) as system, for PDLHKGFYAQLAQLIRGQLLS [20E2B-3-E3-IGFR] 0.1

* * *

Biological target: IGF-1R (Homo sapiens)
Assay: Phage ELISA, binding of phage clones to IGF-1R (ratio over background)
Conditions: ratio of IGF-1R divided by ratio of IR
No end group written: not given here.
The threshold is inclusive: Comparisons IGF-1R/IR of exactly 7 counts as t; values below receive f.

{"substance": "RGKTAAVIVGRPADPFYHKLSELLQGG [Peptide B6Hα-3-E8-IR]", "target": "IGF-1R (Homo sapiens)", "assigned_class": "f"}

Given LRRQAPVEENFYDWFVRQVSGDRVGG [H2CA-3-D7-IGFR] , state whether its Comparisons IGF-1R/IR is at least 7. f

Does the substance CMM.DGFYAGLGCLLTAGEGR (CMMXDGFYAGLGCLLTAGEGR; not fully specified; printed as CMM.DGFYAGLGCLLTAGEGR; X: residue not identified in the source; cysteine pairing not given here) [20E2B-3-C11-IGFR] have recorded Comparisons IGF-1R/IR that is 7 or more? t

// inclusive: Comparisons IGF-1R/IR at least 7? input: RGCNDDGGKGWSDDPFYHKLSELICGG [Peptide B6Hα-1-A2-IR] t

Is Comparisons IGF-1R/IR for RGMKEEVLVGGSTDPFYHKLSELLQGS [B6Hα-3-F11-IR] at or above 7? t

Does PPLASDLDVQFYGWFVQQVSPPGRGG [H2CA-2-B3-IGFR] have a reported Comparisons IGF-1R/IR of at least 7? f

Is the recorded value of Comparisons IGF-1R/IR equal to or greater than 7 for this substance? GFREGNFYEWFQAQVT [Peptide E4Dα-4-H2-IR] f

Entry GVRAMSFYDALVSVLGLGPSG [20E2B-1-A6-IGFR] : is its Comparisons IGF-1R/IR no less than 7? t

Does the substance AGSVTSFYDAMEQLVATGTSA [20E2A-3-A4-IGFR] have recorded Comparisons IGF-1R/IR that is 7 or more? f

Is Comparisons IGF-1R/IR for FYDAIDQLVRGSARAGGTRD [R20α-3-20E2-IR] at or above 7? t

Is reported Comparisons IGF-1R/IR greater than or equal to 7 here: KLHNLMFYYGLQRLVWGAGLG [20E2B-4-H3-IGFR] t

Does Comparisons IGF-1R/IR meet or surpass 7 for RGIVAMVEATEVGSDHPFYHKLSELVQGS [Peptide B6Hα-2-C7-IR] ? f

Is the recorded value of Comparisons IGF-1R/IR equal to or greater than 7 for this substance? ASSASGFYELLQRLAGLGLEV [20E2B-3-C4-IGFR] f

# bool: Comparisons IGF-1R/IR of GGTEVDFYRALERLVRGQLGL [20E2B-3-D8-IGFR] >= 7 t

Would you say QSGSGDFYDWLSRLIRGNGDG [20E2Bβ-3-C7-IR] shows Comparisons IGF-1R/IR at minimum 7? f

// inclusive: Comparisons IGF-1R/IR at least 7? input: GFREGSFYDWFQAQVT [E4Dα-2-D11-IR] f

Please tell me: is the substance RCGDEEGWQENRRDDPFYHKLSELFGGC [Peptide B6Hα-3-E5-IR] at or over 7 in terms of Comparisons IGF-1R/IR? f

Assess whether reported Comparisons IGF-1R/IR for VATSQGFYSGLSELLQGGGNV [20E2B-3-E12-IGFR] sits at 7 or higher. t

API: above_or_equal(metric=Comparisons IGF-1R/IR, cutoff=7) for item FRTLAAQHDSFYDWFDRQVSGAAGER [H2CA-3-C11-IGFR] f

* * *

# reported Comparisons IGF-1R/IR; entries follow
Target: IGF-1R (Homo sapiens)
Test: Phage ELISA, binding of phage clones to IGF-1R (ratio over background)
Conditions: ratio of IGF-1R divided by ratio of IR
Please give the numeric answer without any surrounding text.

{"sequence": "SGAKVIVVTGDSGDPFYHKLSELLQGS [B6Hα-2-C10-IR]", "measured": 5.3}
{"sequence": "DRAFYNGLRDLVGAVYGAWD [R20α-4-20C11-IR]", "measured": 10.3}
{"sequence": "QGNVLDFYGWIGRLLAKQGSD [20E2B-3-D12-IGFR]", "measured": 7.3}

Output measured Comparisons IGF-1R/IR for this item: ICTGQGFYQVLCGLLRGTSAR [20E2B-2-B3-IGFR] 7.4

* * *

Target: IGF-1R (Homo sapiens, UniProt P08069)
Test: Phage ELISA, binding of phage clones to IGF-1R (ratio over background)
Conditions: ratio of IGF-1R divided by ratio of IR
Recorded Comparisons IGF-1R/IR values for a group of sequences are listed next.
Enter the number alone.

Observe how each entry below is paired with its result.
{"sequence": "LSCLAYSRHGIWRPSTDLGLGRSVGEGSVSTRWRGYDWFE [40F-4-D1-IGFR]", "measured": 13.1}
{"sequence": "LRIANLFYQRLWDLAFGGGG [20E2B-3-E8-IFGR]", "measured": 11.1}

// below: Comparisons IGF-1R/IR requested for another sequence
Specify reported Comparisons IGF-1R/IR for the sequence shown: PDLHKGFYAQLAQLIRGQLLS [20E2B-3-E3-IGFR] 13.1
